All values here come from patent US8729061B2.

The following compounds each carry a recorded pIC50 for human Cat K (Homo sapiens (Human)).
// pIC50 is dimensionless: -log10 of concentration (M)

Please review the following examples before continuing.
>  <compound>
CC[C@H](NC(=O)[C@@H]1C[C@@H](S(=O)(=O)c2ccccc2Cl)CN1C(=O)C1(c2ncc(Br)cc2F)CC1)C(=O)C(=O)NC1CC1 [Example 23]

>  <pIC50>
6.52

$$$$
>  <compound>
CCC[C@H](NC(=O)[C@@H]1C[C@@H](S(=O)(=O)c2ccccc2Cl)CN1C(=O)C1(c2ccc(I)cc2)CC1)C(=O)C(=O)NC1CC1 [Example 18]

>  <pIC50>
7.68

$$$$

Moving on to the next compound.
Asked: State pIC50 (human Cat K (Homo sapiens (Human))) of CC[C@H](NC(=O)[C@@H]1C[C@@H](S(=O)(=O)c2ccccc2C(F)(F)F)CN1C(=O)C1(c2ncc(Cl)cc2F)CC1)C(=O)C(=O)NC1CC1 [Example 19] .
Given back: 6.12

----------
# tgt: human Cathepsin S (Homo sapiens (Human), UniProt P25774)
# Sequence (P25774 115-331): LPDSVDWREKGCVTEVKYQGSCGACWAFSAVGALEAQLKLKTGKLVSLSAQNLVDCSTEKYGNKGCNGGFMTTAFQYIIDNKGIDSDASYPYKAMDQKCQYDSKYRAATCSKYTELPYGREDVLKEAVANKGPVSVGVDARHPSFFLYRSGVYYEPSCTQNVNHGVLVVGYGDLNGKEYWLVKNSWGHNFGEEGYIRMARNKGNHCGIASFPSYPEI
# assay_info: Cathepsin enzyme inhibition assay (fluorogenic peptide substrate), Cat S
# Type: biochemical
# condition_notes: enzyme 1 nM, substrate Z-Val-Val-Arg-AMC 20 μM, pH 6.5
assay_readout: IC50
The reply should consist of the numeric value with the unit placed after it.

>  <compound>
CCC[C@H](NC(=O)[C@@H]1C[C@@H](S(=O)(=O)c2ccccc2Cl)CN1C(=O)C1(c2ccc(I)cc2)CC1)C(=O)C(=O)NC1CC1 [Example 18]

>  <result>
600 pM

$$$$
>  <compound>
CC[C@H](NC(=O)[C@@H]1C[C@@H](S(=O)(=O)c2ccccc2Cl)CN1C(=O)C1(c2ccc(Br)cc2)CC1)C(=O)C(=O)NC1CC1 [Example 15]

>  <result>
520 pM

$$$$

Asked: Provide measured IC50 value, entry: CCNC(=O)C(=O)[C@H](CC)NC(=O)[C@@H]1C[C@@H](S(=O)(=O)c2ccccc2Cl)CN1C(=O)C1(c2ccc(Cl)cc2)CC1 [Example 43]
Given back: 508 pM

Asked: Given the compound CCC[C@H](NC(=O)[C@@H]1C[C@@H](S(=O)(=O)c2ccccc2Cl)CN1C(=O)C1(c2ccc(Cl)cc2)CC1)C(=O)C(=O)NC(C)C [Example 41] , write its reported IC50.
Given back: 568 pM

Asked: // fetch IC50 given entry CC[C@H](NC(=O)[C@@H]1C[C@@H](S(=O)(=O)c2ccc(Cl)cc2Cl)CN1C(=O)C1(c2ccc(Cl)cc2)CC1)C(=O)C(=O)NC1CC1 [Example 38]
Given back: 340 pM

Asked: Provide one value: measured IC50 of C[C@H](NC(=O)[C@@H]1C[C@@H](S(=O)(=O)c2ccccc2Cl)CN1C(=O)C1(c2ccc(Cl)cc2)CC1)C(=O)C(=O)NC1CC1 [Example 34]
Given back: 787 pM

Asked: Specify measured IC50 for CC[C@H](NC(=O)[C@@H]1C[C@@H](S(=O)(=O)c2ccccc2Cl)CN1C(=O)C1(c2ccc(Cl)cc2F)CC1)C(=O)C(=O)NC1CC1 [Example 13] .
Given back: 704 pM

Asked: Note down IC50 recorded for CC[C@H](NC(=O)[C@@H]1C[C@@H](S(=O)(=O)c2ccccc2C(F)(F)F)CN1C(=O)C1(C(F)(F)F)CC1)C(=O)C(=O)NC1CC1 [Example 7]
Given back: 3780 pM
